Molecular target: HLA-A*6801 (human)
Experiment: competition with 125I-labelled standard peptide for purified HLA; gel filtration
Conditions: remark: other sources report otherwise
metric: IC50

INSERT INTO results (binder, metric, result) VALUES
  ('LAARNVLVK [Her2/neu.846]', 'IC50', '500 nM');
